Assay: growth suppression of PTEN-deleted HCT116, pilot screen, cell-based, HCT116 clonal line, CellTiter-Glo (AID 824);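 note: 0% = 20 µM Hyamine control and 100% = vehicle cell control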
Details: 60 h, at 10 µM, active compounds read low
Inconclusive results are not listed.

Compound: Cc1cc(Nc2ccc(F)c(Cl)c2)n2nc(C)nc2n1
viability / %: 92.4
//
Compound: COc1ccc(C2=NOC(C(=O)Nc3c(C)n(C)n(-c4ccccc4)c3=O)C2)cc1OC (stereo unspecified)
viability / %: 106
//
Compound: O=C(CSc1nnc(-c2ccccn2)n1Cc1ccco1)c1ccccc1
viability / %: 95.2
//
Compound: CC(=O)C(Sc1ccc2nnc(-c3ccc(C)cc3)n2n1)C(C)=O
viability / %: 95.3
//
Compound: CCOc1ccc(C2CC(=O)NC(SC)=C2C#N)cc1 (stereo unspecified)
viability / %: 94.9
//
Compound: Cc1cc(NC(=O)c2ccc3c(c2)C(=O)N(C2CCCCC2)C3=O)no1
viability / %: 41.5
//
Compound: COC(=O)c1ccccc1NC(=O)Nc1nnc(N2CCCCC2C)s1 (stereo unspecified)
viability / %: 49.8
//
Compound: CC(=O)c1c(Nc2ccc3c(c2)OCCO3)oc(C)cc1=O
viability / %: 100
//
Compound: CCc1nc(SCC(=O)c2ccc(C)c(C)c2)n[nH]1
viability / %: 104
//
Compound: Cc1cccc(-n2c(Cc3cc(=O)[nH]c(=O)[nH]3)nnc2SC(C)C)c1
viability / %: 97.7
//
Compound: C/C(=C1/SC(=S)N(CCC(=O)O)C1=O)c1ccc(O)cc1
viability / %: 98.1
//
Compound: O=C1c2cccc3cccc(c23)C(=O)N1c1nccs1
viability / %: 106
//
Compound: COc1cc(CNC(=O)OCC(C)C)cc(OC)c1OC
viability / %: 99
//
Compound: Cc1ccc2c(c1)N(CCCC(=O)NCc1cccnc1)C(=O)CO2
viability / %: 99.1
//
Compound: CC(=O)N(Cc1ccco1)C1(C(=O)NC2CCCCC2)CCCCC1
viability / %: 94.5
//
Compound: O=C(CCCN1C(=O)c2ccccc2C1=O)Nc1ccccc1C(=O)N1CCOCC1
viability / %: 103
//
Compound: Cc1cc(Nc2ccc(Br)cc2F)n2nc(C)nc2n1
viability / %: 86
//
Compound: O=C(NC1CCCCC1)c1ccc(S(=O)(=O)N2CCOCC2)cc1
viability / %: 101
//
Compound: O=C(O)CCCC(=O)Nc1ccc(Cl)c(Cl)c1
viability / %: 98.1
//
Compound: O=C(O)C1CC=CCC1C(=O)NCc1cn2ccccc2n1 (stereo unspecified)
viability / %: 96.1
//
Compound: CCOC(=O)C1CCCN(C(=O)C2CCN(c3nnc(-n4cccc4)s3)CC2)C1 (stereo unspecified)
viability / %: 90.8
//
Compound: COc1cc2c(cc1OC)C1=C(C#N)CN(CC(=O)O)CN1CC2
viability / %: 96
//
Compound: Cc1nnc(NC(=O)CSc2nnc(Cc3cccn3C)n2-c2cccc(C(F)(F)F)c2)s1
viability / %: 94
//
Compound: C=CCn1c(O)c(C2=c3ccccc3=NC2=O)s/c1=N/c1nccs1
viability / %: 36
//
Compound: COc1ccc(N(CC(=O)NC2CCCCC2)S(=O)(=O)c2cccnc2)cc1
viability / %: 105
//
Compound: Cc1nc2ccccc2c(=O)n1CCCO
viability / %: 96
//
Compound: COc1ccc(C2CC(c3ccc(Cl)cc3)n3nc(N)nc3N2)cc1 (stereo unspecified)
viability / %: 95.1
//
Compound: O=C(O)CCn1c(=O)[nH]c2ccccc2c1=O
viability / %: 105
//
Compound: Cc1c(C(=O)NCC2CCCO2)oc2ccc(S(=O)(=O)N3CCCC3)cc12 (stereo unspecified)
viability / %: 91.6
//
Compound: CC(=O)c1cccc(NC(=O)CN(c2ccc(F)cc2)S(C)(=O)=O)c1
viability / %: 98.7
//
Compound: NC(=O)c1ccsc1NC(=O)c1cccs1
viability / %: 92.8
//
Compound: CC12CN3CC(C)(CN(C1)C3c1ccc(Br)cc1)C2=O (stereo unspecified)
viability / %: 96.9
//
Compound: Cn1c(C(=O)N2CCC(C(=O)N3CCN(Cc4ccc5c(c4)OCO5)CC3)CC2)cc2sccc21
viability / %: 71.1
//
Compound: COCCNC(=O)Cn1cnc2c1c(=O)n(C)c(=O)n2C
viability / %: 98.3
//
Compound: COc1ccc(C2C=C(c3ccc(C)c(C)c3)Nc3ncnn32)c(OC)c1OC (stereo unspecified)
viability / %: 34.3
//
Compound: CCCCCn1c(CNC(=O)c2cccs2)nc2ccccc21
viability / %: 94
//
Compound: O=C(Nc1ccc(SC(F)F)cc1)C1=COCCO1
viability / %: 90.1
//
Compound: Cc1ccc(NC2=CC(=O)CC(c3ccco3)C2)c(N)c1 (stereo unspecified)
viability / %: 86.5
//
Compound: c1coc(CNc2c3c(nc4ncnn24)CCCC3)c1
viability / %: 93.1
//
Compound: O=c1cc(NCc2ccco2)c2ccccc2o1
viability / %: 96.7
//
Compound: Cc1cccc(-n2c(Cc3cc(=O)[nH]c(=O)[nH]3)nnc2SCC(=O)N2CCCCC2)c1
viability / %: 87.8
//
Compound: CCOC(=O)CNC(=O)CSc1nnc(-c2ccco2)n1Cc1ccco1
viability / %: 98.2
//
Compound: CC(=O)Nc1sc(C)c(C)c1CN1CCN(S(=O)(=O)c2ccccc2)CC1
viability / %: 85
//
Compound: COCCNC(=O)c1ccccc1NC(=O)C1COc2ccccc2O1 (stereo unspecified)
viability / %: 102
//
Compound: Oc1ccc(-c2nc3cnccn3c2Nc2ccc3c(c2)OCCO3)cc1
viability / %: 83.8
//
Compound: Cn1c(=O)c2c(nc(NCc3ccccc3)n2C)n(C)c1=O
viability / %: 95.4
